# Assayed target: Siglec-4a (MAG) (UniProt P20917)
# Experimental protocol: Hapten inhibition assay, Siglec-4a (MAG)
# Experimental context: read-out: Siglec-4a (MAG) IC50; unit inferred
Consider the following molecules; for each one, report its IC50.
Numbers only, in µM.

Some entries whose results are on file:
CO[C@]1(C(=O)O)C[C@H](O)[C@@H](NC(C)=O)[C@H]([C@H](O)[C@H](O)CNC(=O)C2CCCCC2)O1 :: 110
COC1(C(=O)O)CC(O)C(NC(C)=O)C(C(O)C(O)CNS(=O)(=O)c2cccc3c(N(C)C)cccc23)O1 (stereo not shown) :: 317
CO[C@]1(C(=O)O)C[C@H](O)[C@@H](NC(C)=O)[C@H]([C@H](O)[C@H](O)CNC(C)=S)O1 :: 733

Required: IC50, one value per molecule below.
1. COC1(C(=O)O)CC(O)C(NC(C)=O)C(C(O)C(O)CNC(=O)CC(C)=O)O1 (stereo not shown)
2. CO[C@]1(C(=O)O)C[C@H](O)[C@@H](NC(C)=O)[C@H]([C@H](O)[C@H](O)CS(C)(=O)=O)O1
3. COC1(C(=O)O)CC(O)C(NC(C)=O)C(C(O)C(O)CNC(=O)c2c(F)c(F)c(F)c(F)c2F)O1 (stereo not shown)
4. COC1(C(=O)O)CC(O)C(NC(C)=O)C(C(O)C(O)CNC(=O)C(F)(F)F)O1 (stereo not shown)
5. CO[C@]1(C(=O)O)C[C@H](O)[C@@H](NC(C)=O)[C@H]([C@H](O)[C@H](O)CNC(=O)C(CNC(C)=O)NC(C)=O)O1 (stereo partly shown)

1. 1010
2. 3400
3. 107
4. 550
5. 2500

For each entry beneath this line, provide reported IC50.
1. CO[C@]1(C(=O)O)C[C@H](O)[C@@H](NC(C)=O)[C@H]([C@H](O)[C@H](O)CNC(=O)c2ccc(NC(C)=O)cc2)O1
2. CO[C@]1(C(=O)O)C[C@H](O)[C@@H](NC(C)=O)[C@H]([C@H](O)[C@H](O)CNC(=O)c2ccccc2)O1
3. COC1(C(=O)O)CC(O)C(NC(C)=O)C(C(O)C(O)CNC(=O)c2ccc3ccccc3n2)O1 (stereo not shown)
4. COC1(C(=O)O)CC(O)C(NC(C)=O)C(C(O)C(O)CNC(=O)c2cccc3cc4ccccc4cc23)O1 (stereo not shown)

62
7
87
162
